Can you tell me Tm for the items I'm about to list?
# assay_conditions: Escherichia coli (strain K12); pH 7.5; Thermal; Intensity; HEPES 20mM; transition: 2; whole UniProt chain shown
Hi! Could you send only the number? It should be in °C, unit omitted.

// Tm lookup, key: Probable ATP-dependent transporter SufC wild type, P77499 (protein) MLSIKDLHVSVEDKAILRGLSLDVHPGEVHAIMGPNGSGKSTLSATLAGREDYEVTGGTVEFKGKDLLALSPEDRAGEGIFMAFQYPVEIPGVSNQFFLQTALNAVRSYRGQETLDRFDFQDLMEEKIALLKMPEDLLTRSVNVGFSGGEKKRNDILQMAVLEPELCILDESDSGLDIDALKVVADGVNSLRDGKRSFIIVTHYQRILDYIKPDYVHVLYQGRIVKSGDFTLVKQLEEQGYGWLTEQQ
44.9

// Tm lookup, key: Formate-dependent phosphoribosylglycinamide formyltransferase wild type, P33221 (protein) MTLLGTALRPAATRVMLLGSGELGKEVAIECQRLGVEVIAVDRYADAPAMHVAHRSHVINMLDGDALRRVVELEKPHYIVPEIEAIATDMLIQLEEEGLNVVPCARATKLTMNREGIRRLAAEELQLPTSTYRFADSESLFREAVADIGYPCIVKPVMSSSGKGQTFIRSAEQLAQAWKYAQQGGRAGAGRVIVEGVVKFDFEITLLTVSAVDGVHFCAPVGHRQEDGDYRESWQPQQMSPLALERAQEIARKVVLALGGYGLFGVELFVCGDEVIFSEVSPRPHDTGMVTLISQDLSEFALHVRAFLGLPVGGIRQYGPAASAVILPQLTSQNVTFDNVQNAVGADLQIRLFGKPEIDGSRRLGVALATAESVVDAIERAKHAAGQVKVQG
43.4

// Tm lookup, key: Acyl-CoA thioester hydrolase YciA wild type, P0A8Z0 (protein) MSTTHNVPQGDLVLRTLAMPADTNANGDIFGGWLMSQMDIGGAILAKEIAHGRVVTVRVEGMTFLRPVAVGDVVCCYARCVQKGTTSVSINIEVWVKKVASEPIGQRYKATEALFKYVAVDPEGKPRALPVE
46.3
